The values you see were collected from the Bradley open melting point set (2014).

Counter-ions that a name gives are not always drawn.
melting point vs 100 °C: at or above is label 1, below is label 0.

[
  {
    "Compound": "NCCCCCC(=O)O",
    "Class": "label 1"
  },
  {
    "Compound": "Cc1ccc(N)cc1O",
    "Class": "label 1"
  },
  {
    "Compound": "O=C(C(=O)c1ccccc1)c1ccccc1 [benzil]",
    "Class": "label 0"
  },
  {
    "Compound": "Nc1ccc(N)c2c1C(=O)c1c(N)ccc(N)c1C2=O",
    "Class": "label 1"
  },
  {
    "Compound": "CCc1c(C)[nH]c2c1C(=O)C(CN1CCOCC1)CC2 (stereo not drawn)",
    "Class": "label 1"
  },
  {
    "Compound": "CCn1c2ccccc2c2ccccc21",
    "Class": "label 0"
  },
  {
    "Compound": "CN1C(CCl)Nc2cc(Cl)c(S(N)(=O)=O)cc2S1(=O)=O (stereo not drawn) [methyclothiazide]",
    "Class": "label 1"
  },
  {
    "Compound": "CCOC=O [ethyl formate]",
    "Class": "label 0"
  },
  {
    "Compound": "C[C@H]1CCC[C@@H]1C (relative stereo) [trans-1,2-dimethylcyclopentane]",
    "Class": "label 0"
  },
  {
    "Compound": "COC(=O)c1ccc(-c2cccc([N+](=O)[O-])c2)cc1 [methyl 3'-nitrobiphenyl-4-carboxylate]",
    "Class": "label 1"
  },
  {
    "Compound": "N#Cc1ccc(CO)cc1",
    "Class": "label 0"
  },
  {
    "Compound": "O=C(O)c1cc(-c2ccc(F)cc2F)ccc1O [diflunisal]",
    "Class": "label 1"
  },
  {
    "Compound": "CC(=O)NCO [N-(hydroxymethyl)acetamide]",
    "Class": "label 0"
  },
  {
    "Compound": "O=S1(=O)CC=CC1",
    "Class": "label 0"
  },
  {
    "Compound": "O=[N+]([O-])c1ccc(/N=N/c2c(O)ccc3ccccc23)cc1",
    "Class": "label 1"
  },
  {
    "Compound": "Nc1ccc(C/C(=N/O)c2ccc(N)cc2)cc1",
    "Class": "label 1"
  },
  {
    "Compound": "CC(C)C(=O)c1ccccc1",
    "Class": "label 0"
  },
  {
    "Compound": "COC(C)=O [methyl acetate]",
    "Class": "label 0"
  },
  {
    "Compound": "Cc1cc(C)nc(NS(=O)(=O)c2ccc(N)cc2)n1",
    "Class": "label 1"
  },
  {
    "Compound": "CCCCOC(=O)c1ccc(O)cc1 [Mekkings B]",
    "Class": "label 0"
  },
  {
    "Compound": "N#CCc1cccc(C(F)(F)F)c1Cl",
    "Class": "label 0"
  },
  {
    "Compound": "O=S(=O)(Cl)Cc1ccc(C(F)(F)F)cc1 [4-trifluoromethyl-alpha-toluenesulfonyl chloride]",
    "Class": "label 1"
  },
  {
    "Compound": "N#CCc1nn(-c2ccccc2)c(N)c1C#N",
    "Class": "label 1"
  },
  {
    "Compound": "O=[N+]([O-])c1cccc(C=NO)c1",
    "Class": "label 1"
  },
  {
    "Compound": "COc1ccc(Cc2cnc(N)nc2N)cc1OC",
    "Class": "label 1"
  },
  {
    "Compound": "CCCNCCC [di-n-propylamine]",
    "Class": "label 0"
  },
  {
    "Compound": "Cc1cc(-c2ccc(NC=O)c(C)c2)ccc1NC=O [N,N'-(3,3'-dimethylbiphenyl-4,4'-diyl)diformamide]",
    "Class": "label 1"
  },
  {
    "Compound": "CCCCCCCCCCCCCCc1ccccc1 [Tetradecylbenzene]",
    "Class": "label 0"
  },
  {
    "Compound": "COc1ccc(Cl)cc1B(O)O",
    "Class": "label 1"
  },
  {
    "Compound": "CC(C)(C)c1ccc(C(C)(C)C)cc1 [p-di-tert-butylbenzene]",
    "Class": "label 0"
  },
  {
    "Compound": "O[C@H]1O[C@H](COCc2ccccc2)[C@@H](OCc2ccccc2)[C@H](OCc2ccccc2)[C@H]1OCc1ccccc1",
    "Class": "label 1"
  },
  {
    "Compound": "CCCCCCCCCCCCCC(C)C",
    "Class": "label 0"
  }
]
